Target: EphB4(h) (Homo sapiens)
Sequence (P54760 16-987): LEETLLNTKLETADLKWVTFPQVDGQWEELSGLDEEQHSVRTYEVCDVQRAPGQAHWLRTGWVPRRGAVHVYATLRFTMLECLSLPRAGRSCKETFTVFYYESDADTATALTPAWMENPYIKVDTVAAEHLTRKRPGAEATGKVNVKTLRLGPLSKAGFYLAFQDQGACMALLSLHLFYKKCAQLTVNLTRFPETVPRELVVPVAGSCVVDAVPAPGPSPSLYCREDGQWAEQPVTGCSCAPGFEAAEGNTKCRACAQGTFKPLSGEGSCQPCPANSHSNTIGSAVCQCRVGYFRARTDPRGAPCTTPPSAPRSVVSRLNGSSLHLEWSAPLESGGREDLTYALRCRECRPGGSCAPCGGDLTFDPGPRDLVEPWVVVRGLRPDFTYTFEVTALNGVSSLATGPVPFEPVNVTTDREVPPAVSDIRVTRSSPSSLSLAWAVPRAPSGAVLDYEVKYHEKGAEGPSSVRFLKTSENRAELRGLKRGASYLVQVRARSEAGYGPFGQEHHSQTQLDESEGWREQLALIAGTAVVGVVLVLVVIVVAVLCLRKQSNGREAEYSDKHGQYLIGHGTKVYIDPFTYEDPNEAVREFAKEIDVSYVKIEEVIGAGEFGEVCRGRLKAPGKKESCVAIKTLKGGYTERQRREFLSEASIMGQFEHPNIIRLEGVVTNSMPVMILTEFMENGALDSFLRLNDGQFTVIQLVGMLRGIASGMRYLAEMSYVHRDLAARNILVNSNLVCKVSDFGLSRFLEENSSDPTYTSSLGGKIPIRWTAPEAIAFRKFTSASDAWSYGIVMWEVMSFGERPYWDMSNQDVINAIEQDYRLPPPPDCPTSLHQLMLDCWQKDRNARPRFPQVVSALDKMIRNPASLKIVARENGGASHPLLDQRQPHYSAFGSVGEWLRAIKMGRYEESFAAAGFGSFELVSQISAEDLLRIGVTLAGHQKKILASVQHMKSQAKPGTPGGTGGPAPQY
Assay: Kinase Profiling Assay
Type: biochemical
Conditions: 100 μM peptide
attribute.measured: EphB4(h) % activity (%)
Give the value, in units of %, as a plain number.

Worked set:
| residue.codes | EphB4(h) % activity / % |
| --- | --- |
| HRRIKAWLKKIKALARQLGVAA (Mammalian) [MMI-0500] | 38 |
| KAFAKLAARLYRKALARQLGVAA [MMI-0400] | 28 |
| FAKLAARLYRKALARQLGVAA [MMI-0300] | 44 |

Please turn your attention to the following entry.
What does the data say about its EphB4(h) % activity? Entry: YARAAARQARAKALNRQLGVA (Mammalian) [MMI-0200]
131
